- Assayed system: AdgB (Variovorax paradoxus, UniProt T1X8R6)
- Sequence (T1X8R6 28-388 limits assumed): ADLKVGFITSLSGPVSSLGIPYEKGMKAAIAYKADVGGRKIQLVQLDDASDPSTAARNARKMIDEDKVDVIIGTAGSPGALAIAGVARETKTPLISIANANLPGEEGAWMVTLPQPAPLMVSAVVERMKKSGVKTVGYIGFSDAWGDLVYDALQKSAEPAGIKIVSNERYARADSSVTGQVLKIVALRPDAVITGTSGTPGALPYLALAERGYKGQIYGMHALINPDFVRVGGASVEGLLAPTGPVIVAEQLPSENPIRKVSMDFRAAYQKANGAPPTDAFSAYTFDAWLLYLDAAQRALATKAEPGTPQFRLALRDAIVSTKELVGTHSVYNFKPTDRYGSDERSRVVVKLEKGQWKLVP
Endpoint label: Kd
Record the result as a number with its unit.

O=C(O)Cc1cccc2ccccc12 tested on AdgB (Variovorax paradoxus, UniProt T1X8R6) gave Kd: 20 µM

O=C(O)CCCc1c[nH]c2ccccc12 tested on AdgB (Variovorax paradoxus, UniProt T1X8R6) gave Kd: 25 µM

O=C(O)Cc1c[nH]c2cccc(Cl)c12 tested on AdgB (Variovorax paradoxus, UniProt T1X8R6) gave Kd: 8.4 µM

O=C(O)CCc1c[nH]c2ccccc12 tested on AdgB (Variovorax paradoxus, UniProt T1X8R6) gave Kd: 1.6 µM
